- assay.remarks: gradient 5% acetonitrile 3 min, to 50% in 2 min, to 85% in 15 min, held 3 min, 100 µL/min
- test.parameters: column: Zorbax Extend-C18 2.1 x 50 mm; eluents: water / acetonitrile, 0.1% formic acid
property.label: RP-LC retention time (s)

| compound | RP-LC retention time (s) |
| --- | --- |
| O=C(NCC(O)C1CCCCC1)c1cccc2ccccc12 (centres undefined) | 802 |

I = CCN(CC)c1nc2cc(C(=O)NCC3CC3)ccc2c(=O)n1Cc1ccccc1
II = CCCN1C(=O)c2c(C(=O)NCc3ccc(N(C)C)cc3)ncn2CC1(C)C(=O)NCCC(C)C (centres undefined)
Returns the identifier with the smallest measured RP-LC retention time among I and II . Lab note: record the label of whichever item you select. II
(II: 649 s, I: 1020 s)
